Source: patent EP1025114B1

Tested on: Staphylococcus epidermidis 3519

compound: CC[C@H]1OC(=O)[C@H](C)C(=O)[C@H](C)[C@@H](O[C@@H]2O[C@H](C)C[C@H](N(C)C(C)=O)[C@H]2O)[C@](C)(OCC=Cc2cnc3ccccc3c2)C[C@@H](C)C(=O)[C@H](C)[C@H]2NC(=O)O[C@@]21C
MIC, µg/mL: 6.2
--
compound: CC[C@H]1OC(=O)[C@H](C)C(=O)[C@H](C)[C@@H](O[C@@H]2O[C@H](C)C[C@H](N(C)C3CC3)[C@H]2O)[C@](C)(OCC=Cc2cnc3ccccc3c2)C[C@@H](C)C(=O)[C@H](C)[C@H]2NC(=O)O[C@@]21C [Example 20]
MIC, µg/mL: 3.1
